All values here come from ChEMBL document CHEMBL1201862.

tested on: KM12; assay: NCI tumour cell line growth inhibition, 48 h
Calls of active or inactive are those of the source. Cut-off read from the data, not from the text of the source: active = GI50 up to about 1.1 µM and inactive = higher.
Readout Type: GI50

Query :: Would you kindly share the measured GI50 for BrC/C=C/C[P+](c1ccccc1)(c1ccccc1)c1ccccc1 ?
Result :: 4.29 µM (inactive)

Query :: Now this one: O=C1Nc2c(Cl)cccc2/C1=N/Nc1ccccc1[N+](=O)[O-]
Result :: 8.89 µM (inactive)

Query :: Now this one: Cc1cccc(-c2cc(=O)c3cc(C)c(C)c(C(=O)O)c3o2)c1
Result :: > 100 µM (inactive)

Query :: Now this one: CCOC(=O)c1[nH]c(CN(C)Cc2[nH]c(C(=O)OCC)c(C)c2C(=O)OCc2ccccc2)c(C(=O)OCc2ccccc2)c1C
Result :: 7.45 µM (inactive)

Query :: Now this one: Cc1cc(NS(=O)(=O)c2ccc(NC(=O)c3cccc4c(NNc5ccc(S(N)(=O)=O)cc5)c5ccccc5nc34)cc2)no1
Result :: 38.1 µM (inactive)

Query :: Now this one: CC1(C)OC(=O)C(c2ccsc2)C(=O)O1
Result :: > 100 µM (inactive)

Query :: Now this one: NNC(=O)N/N=C(/CC1(O)C(=O)Nc2ccc(Br)cc21)c1ccccc1 (stereo unspecified)
Result :: 25.7 µM (inactive)

Query :: Now this one: S=P(C1CCCCC1)(C1CCCCC1)C(c1cccnc1)N1CCCC1 (stereo unspecified)
Result :: 17.5 µM (inactive)

Query :: Now this one: Cc1nc2ccccc2c(=O)n1-c1n[nH]c2ccccc12
Result :: > 100 µM (inactive)

Query :: Now this one: Cc1c(-c2nc(N)c(C#N)c(N)c2C#N)c(=O)oc2ccccc12
Result :: 68.4 µM (inactive)

Query :: Now this one: O=C(NC1=C(Cl)C(=O)c2ccccc2C1=O)C(=O)c1c(O)c2ccccc2oc1=O
Result :: 4.55 µM (inactive)

Query :: Now this one: O=C1OC(=O)C2C3C=CC(C12)C1C2C=CC2C31 (stereo unspecified)
Result :: > 100 µM (inactive)

Query :: Now this one: C1=CC=C2NCCSCC/N=C3/C=CC=CC=C3NCCSCC/N=C\2C=C1
Result :: > 100 µM (inactive)

Query :: Now this one: COC(=O)C1C(C(=O)OC)C2C(=O)C3C(C(=O)OC)C(C(=O)OC)C3C(=O)C12 (stereo unspecified)
Result :: > 100 µM (inactive)

Query :: Now this one: COC(=O)[C@@H]1C[C@]2(CC=C(C)C)c3ccccc3N(S(=O)(=O)c3ccccc3)[C@@H]2N1C(=O)OC
Result :: 19.7 µM (inactive)

Query :: Now this one: O=C1Nc2cc(Cl)ccc2C(=O)N2CCC[C@@H]12
Result :: > 100 µM (inactive)

Query :: Now this one: Cc1ccc(/N=N/c2c(C)nn(C(=O)CC(=O)Nc3ccccc3)c2C)cc1C
Result :: > 100 µM (inactive)

Query :: Now this one: C=C(C)CCC1CC=[N+]([O-])OC1C(C)(C)C (stereo unspecified)
Result :: 28.2 µM (inactive)

Query :: Now this one: C=C(C[N+](C)(C)C)N/N=C/c1oc(-c2ccc(OC)c(OC)c2)c(-c2ccc(OC)c(OC)c2)c1[N+](=O)[O-]
Result :: 17.1 µM (inactive)

Query :: Now this one: COc1c(Cl)nc2ccccc2c1N=[N+]=[N-]
Result :: > 100 µM (inactive)

Query :: Now this one: Cc1cc(S(=O)(=O)N2CCNNC2=O)c(S)cc1Cl
Result :: > 100 µM (inactive)
